- System: C57BL/6 male mice
- Procedure Summary: In vivo delivery study of lipid nucleic acid mixture (oral gavage, RT-qPCR of PGY-sRNA-26 in tissues)
- Parameters: species or system mouse
- Condition Context: 100 μg lipid:10 nmol PGY-sRNA-26, all tissues and blood tested
Assay Readout: overall delivery efficacy: delivering nucleic acids into each tissue and blood tested

{"columns": ["Compound", "Endpoint Result"],
 "data": [
  ["CCCCC/C=C\\C/C=C\\C/C=C\\C/C=C\\CCCC(=O)NCCN(CC)CC", "best delivery efficacy"],
  ["CCCCCCCCCCCCCCCC=O", "best delivery efficacy"],
  ["CCCCCCCCCCCCCCO", "best delivery efficacy"],
  ["O=C(O)CCC(=O)O", "best delivery efficacy"],
  ["CCCCCCCC/C=C/CCCCCCCCO [Lipid 600, (E)-octadec-9-en-1-ol]", "best delivery efficacy"],
  ["CCCCCCCCCCCCCCCC(N)=O [Lipid 599, hexadecanamide]", "best delivery efficacy"],
  ["CCCCCCCCCCCCCC(C)=O", "best delivery efficacy"],
  ["N[C@@H](CCCC(=O)O)C(=O)O", "best delivery efficacy"],
  ["NC(CCCC(=O)O)C(=O)O (centres unmarked)", "best delivery efficacy"],
  ["CCCCCCCCCCCC(=O)OC/C=C(\\C)CC/C=C(\\C)CCC=C(C)C", "best delivery efficacy"],
  ["CC1(O)CCOC(=O)C1 (centres unmarked) [Lipid 603, 4-hydroxy-4-meth-yl-oxan-2-one]", "best delivery efficacy"],
  ["CC/C=C/CCO", "best delivery efficacy"],
  ["CC/C=C/CC1C(=O)CCC1CC(=O)OC (centres unmarked)", "best delivery efficacy"],
  ["O=C(O)CCCCCCCCCCCCCCC(=O)O", "best delivery efficacy"],
  ["CCCCCCCCC(C)=O", "best delivery efficacy"],
  ["CC(C(=O)O)C(=O)O", "best delivery efficacy"],
  ["CCCCCC/C=C\\CCCCCCCC(=O)OCCCCCCCCCCCCCCCCCCC [Lipid 822, nonadecyl (Z)-hexadec-9-enoate]", "best delivery efficacy"],
  ["CCCCCCCCCC(=O)OC/C=C(\\C)CC/C=C(\\C)CCC=C(C)C", "best delivery efficacy"],
  ["CCCCCCCCCCCCCCCCCCO", "best delivery efficacy"],
  ["N[C@H](CCCC(=O)O)C(=O)O", "best delivery efficacy"],
  ["CCCCCCCCCCCCCC=O", "best delivery efficacy"],
  ["CCCCCC(=O)OCCCC [Lipid 613, butyl hexanoate]", "best delivery efficacy"],
  ["COc1cc(CNC(=O)CCCC/C=C/C(C)C)ccc1O", "best delivery efficacy"],
  ["CCCCCCCC(C)C", "best delivery efficacy"],
  ["O=C(O)C[C@H]1CCC(=O)[C@@H]1C/C=C\\CCO", "best delivery efficacy"],
  ["CC/C=C\\CC1C(=O)CCC1CC(=O)O (centres unmarked)", "best delivery efficacy"],
  ["CC(C)(CC(=O)O)CC(=O)O", "best delivery efficacy"],
  ["CCCCCCCCCCCCCCCCCC(N)=O [Lipid 601, octadecanamide]", "best delivery efficacy"],
  ["CCCCC/C=C\\C/C=C\\C/C=C\\C/C=C\\C/C=C\\CCC(=O)O", "best delivery efficacy"]
]}
